test system: Saccharomyces cerevisiae; assay: protein stability index of tFT-peptide fusion (C-terminal peptide) (PSI (0-1 scale)); higher = more stable (slower turnover); details: genetic background: wild type; temperature: 30 C;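 note: PSI is a weighted mean of sequencing reads over stability bins, variants kept only with over 10 reads, mCherry proximal and sfGFP distal, peptide attached via GGGS linker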
protein stability index values for the sequences below.
Write no unit; give the number alone.

Examples with their reported protein stability index follow.
{"columns": ["entry sequence", "val"],
 "data": [
  ["HPRSAYSLAASL", 0.663],
  ["RGARVGKGDACW", 0.607],
  ["KVHVILTGKYEI", 0.701]
]}

Let's switch to this sequence now.
[in] # query: protein stability index of entry "PRRPPSSLWPYP"
[out] 0.669

---

test system: Saccharomyces cerevisiae; assay: protein stability index of tFT-peptide fusion (C-terminal peptide) (PSI (0-1 scale)); higher = more stable (slower turnover); settings: genetic background: das1 deletion; temperature: 30 C
Kind request: treat 0.4 as inclusive, so protein stability index at 0.4 or higher is Criterion met, anything lower is Criterion not met.

{"columns": ["entry sequence", "answer label"],
 "data": [
  ["FFLSFRLFSILL", "Criterion not met"],
  ["VVLWTFLLEVSA", "Criterion not met"],
  ["RCTLFVNPVCVH", "Criterion not met"],
  ["SFSFRPCLLLFF", "Criterion not met"],
  ["SGRAWRLRMHVI", "Criterion met"]
]}

[in] I'd appreciate it if you could say whether "VICSLFRYIMRL" has protein stability index at least equal to 0.4.
[out] Criterion met

[in] Another sequence to look at: "RASLPSLFRSLL"
[out] Criterion met

[in] Entry to check: "PVLIFTWVIVCH"
[out] Criterion not met

---

system: Saccharomyces cerevisiae; test: protein stability index of tFT-peptide fusion (C-terminal peptide) (PSI (0-1 scale)); higher = more stable (slower turnover); conditions: genetic background: wild type; temperature: 30 C
Measured protein stability index, listed per entry for reference.
Please state the value as a number alone, without comment.

{"columns": ["entry sequence", "protein stability index"],
 "data": [
  ["VVGILVLASWDL", 0.376],
  ["LACMWICPHIQA", 0.606],
  ["KLKNKRKKIRNR", 0.71],
  ["LTGRAVCTDKLK", 0.734],
  ["LFFLPSSSLSPL", 0.731]
]}

[in] What value of protein stability index has been reported for the following sequence? "KILNIKCLLANK"
[out] 0.686

[in] Same question, "PPPPLPDTLRSP" this time
[out] 0.624

[in] Same again, this time with "NKTRRCTAHVGG"
[out] 0.679

[in] Then this sequence: "PALPNNVQCDCE"
[out] 0.705

[in] Item: "GGCGGGCGACVV"
[out] 0.701

[in] Same again, this time with "LFGQTVLLSAGT"
[out] 0.713

---

test system: Saccharomyces cerevisiae; assay: protein stability index of tFT-peptide fusion (C-terminal peptide) (PSI (0-1 scale)); higher = more stable (slower turnover); conditions: genetic background: wild type; temperature: 37 C
Entry flag: Fulfilled if protein stability index reaches 0.4; Not fulfilled if it does not.

Before answering, review these 6 worked examples.
{"columns": ["entry sequence", "answer label"],
 "data": [
  ["VVVFRWTCWLLV", "Not fulfilled"],
  ["CGFVFFVLVVFW", "Not fulfilled"],
  ["HLILWLFFVIVF", "Not fulfilled"],
  ["ACLLCVCVESRE", "Fulfilled"],
  ["KKKKRVKIQKKN", "Fulfilled"],
  ["LVCLTPPPSPFS", "Fulfilled"]
]}

[in] Tell me whether protein stability index is at least 0.4 here: "PVLIFTWVIVCH"
[out] Not fulfilled

[in] Moving on to "LVDPFAALRHVV"
[out] Not fulfilled

[in] Same for "TSRRPFVLVMWL"
[out] Fulfilled

[in] "RISGSIVVRKRS" , same question.
[out] Fulfilled
